meta.source: patent US12404232B2

Test: Particle size and polydispersity index of nanoparticle compositions (Zetasizer Nano ZS)
Type: physicochemical
Settings: nanoparticle composition lipid:DSPC:cholesterol:PEG-DMG 50:10:38.5:1.5 mol %, mRNA encoding Luc or hEPO (Table 1A)
y means recorded Size (nm) is 70 nm or above; n means it is below 70 nm.

Some solved entries appear below for comparison.
{"columns": ["compound", "category"],
 "data": [
  ["CCCCCCCCC(CC)OC(=O)CCCCCN(CCO)CCCCCCCC(=O)OC(CCCCCCCC)CCCCCCCC (stereo not shown)", "n"],
  ["CCCCCCCCCOC(=O)CCCCCCCN(CCCCCCCC(=O)OC(CCCCCCCC)CCCCCCCC)CCCN1C(=O)CNC1=O", "n"],
  ["CCCCCC=CCC=CCCCCCCCCC(CCCCCCCCC=CCC=CCCCCC)OC(=O)CCCN(C)C (stereo not shown) [MC3, reference compound]", "y"]
]}

Hi team, for CCCCCCCCCOC(=O)CCCCCCCN(CCCCO)CCCCCCCC(=O)OC(CCCCCCCC)CCCCCCCC , is the recorded Size (nm) at or above 70 nm?
y
